Data origin: PubChem BioAssay AID1508601

test: nuclear p53 accumulation, HPV+ cells – imaging, p53-positive nuclei imaging, 24 h, 48 h (AID 1508601); details: 24/48 h, measured here: cell number at 24 h, Library stock concentration: 278 uM
About 85 (1%) of roughly 5,700 compounds were called active. This excerpt belongs to a sample that is enriched for actives.
// values below are reported nuclei count, normalised
assay metric: nuclei count, normalised

{"structure as smiles": "Cc1ccc(B(O)O)cc1", "measured value": "101%"}
{"structure as smiles": "C#CCOc1ccc2c(c1)c(-c1ccc(C(C)C)cc1)nc(=O)n2C(C)C", "measured value": "110%"}
{"structure as smiles": "CC(C)(C)Nc1nc2cc(Cl)c(Cl)cc2nc1S(C)(=O)=O", "measured value": "105%"}

----------
Listed here are compounds together with their documented nuclei count, normalised.
test: nuclear p53 accumulation, HPV+ cells – imaging, p53-positive nuclei imaging, 24 h, 48 h (AID 1508601); conditions: 24/48 h, measured here: cell number at 24 h, Library stock concentration: 1.67 mM
Hit rate of the full screen: of about 5,700 compounds, about 85 (1%) were called active. The entries come from a sample that favours actives as a whole.

{"compound": "CNC(=O)c1ccc(Nc2ncc(C(F)(F)F)c(NCc3nccnc3N(C)S(C)(=O)=O)n2)cc1", "nuclei count, normalised [%]": 95.8}
{"compound": "COc1ccc(CC(NC(=O)C(C)NC(=O)CN2CCOCC2)C(=O)NC(Cc2ccccc2)C(=O)[C@@]2(C)CO2)cc1 (some centres not stated)", "nuclei count, normalised [%]": 57.1}
{"compound": "CCN(CC)c1ccc(C=NNC(=O)c2ccc(O)cc2)cc1", "nuclei count, normalised [%]": 121}
{"compound": "Cc1cc(OCc2nnc(SC3CCCC3)n2-c2cccnc2)ccc1-c1ccc(S(C)(=O)=O)cc1", "nuclei count, normalised [%]": 74.2}
{"compound": "C#CCOc1ccc2c(c1)c(-c1ccc(C(C)C)cc1)nc(=O)n2C(C)C", "nuclei count, normalised [%]": 104}
{"compound": "COC(=O)C(NC(=O)c1cc(-c2ccccc2)nc2ccccc12)c1ccccc1 (configuration not stated)", "nuclei count, normalised [%]": 93.3}
{"compound": "CN(CCC(Oc1ccc(-c2ccccc2)cc1)c1ccc(F)cc1)CC(=O)O (configuration not stated)", "nuclei count, normalised [%]": 107}
{"compound": "CCCCCCCCc1cccc(NC(=O)C(N)COP(=O)(O)O)c1 (configuration not stated)", "nuclei count, normalised [%]": 113}
{"compound": "Nc1cccc(OCc2ccccc2)c1", "nuclei count, normalised [%]": 109}
{"compound": "CN1CCN(c2ccc(Nc3c4ccccc4nc4ccccc34)cc2)CC1", "nuclei count, normalised [%]": 79.3}
{"compound": "Cc1nc(Nc2n[nH]c3c2CN(C(=O)NC(CN(C)C)c2ccccc2)C3(C)C)c2sccc2n1 (configuration not stated)", "nuclei count, normalised [%]": 75.5}
{"compound": "O=C1CN2Cc3c(ccc(Cl)c3Cl)N=C2N1", "nuclei count, normalised [%]": 83.9}

----------
assay: nuclear p53 accumulation, HPV+ cells – imaging, p53-positive nuclei imaging, 24 h, 48 h (AID 1508601); conditions: 24/48 h, measured here: cell number at 48 h, Library stock concentration: 10 mM
Screen size: about 5,700 compounds; about 85 (1%) were called active. The full list was thinned out, with actives kept by preference.
Please respond with condition met when measured nuclei count, normalised is strictly beneath 40%, and with condition not met in all other cases.

{"molecule": "Cc1cc(OCc2nnc(SC3CCCC3)n2-c2cccnc2)ccc1-c1ccc(S(C)(=O)=O)cc1", "class assignment": "condition met"}
{"molecule": "CN(NC(=O)CC(=O)NN(C)C(=S)c1ccccc1)C(=S)c1ccccc1", "class assignment": "condition not met"}
{"molecule": "C=CC(=O)N1CCc2ccc(-n3c(=O)ccc4cnc5ccc(-c6cnn(C)c6)cc5c43)cc21", "class assignment": "condition met"}
{"molecule": "Nc1ccn(C2OC(CO)C(O)C2F)c(=O)n1 (stereo not given)", "class assignment": "condition not met"}
{"molecule": "NC(=O)c1ncn(C2OC(CO)C(O)C2O)c1O (stereo not given)", "class assignment": "condition not met"}

----------
target: Cellular tumor antigen p53 (Homo sapiens); experiment: nuclear p53 accumulation, HPV+ cells – imaging, p53-positive nuclei imaging, 24 h, 48 h (AID 1508601); details: 24/48 h, Library stock concentration: 400 uM
Hit rate of the full screen: of about 5,700 compounds, about 85 (1%) were called active. No stated cut-off is given here; in the data, active means p53-positive nuclei above about 36% (passing the limit was not always enough); inactive means the rest. What follows is part of a selection rich in actives, with near analogues and random picks from the rest.
Classes used: active, inactive

{"compound": "CCc1cnn2c(NCc3ccc[n+]([O-])c3)cc(N3CCCCC3CCO)nc12 (stereo not given)", "class assignment": "inactive"}
{"compound": "Nc1ncn([C@@H]2O[C@@H](CO)[C@H](O)[C@@H]2O)c(=O)n1", "class assignment": "inactive"}
{"compound": "COc1cc(=C2C=c3ccccc3=N2)[nH]c1=Cc1[nH]c(C)cc1C", "class assignment": "active"}
{"compound": "CC(NC(=O)c1cc(Cl)ccc1Oc1ccc(F)cc1)c1ccc(C(=O)O)cc1 (stereo not given)", "class assignment": "inactive"}
{"compound": "CCCCN(Cc1ccc(C(=O)NO)cc1)C(=O)Nc1ccccc1", "class assignment": "inactive"}
{"compound": "OCCCNc1cc(-c2ccnc(Nc3cccc(Cl)c3)n2)ccn1", "class assignment": "inactive"}
{"compound": "COc1ccc(-c2nc(N3CCOCC3)c3sc(CN(C)c4ncc(C(=O)NO)cn4)cc3n2)cn1", "class assignment": "active"}
{"compound": "CC(C)C1C(=O)NC(CCCN=C(N)N)C(=O)NCC(=O)NC(CC(=O)O)C(=O)NC(Cc2ccccc2)C(=O)N1C (stereo not given)", "class assignment": "inactive"}
{"compound": "Fc1cc(-c2ccnc(Nc3ccc(-n4cnc(N5CCOCC5)n4)cc3)n2)cc(N2CCOCC2)c1", "class assignment": "inactive"}
{"compound": "c1cc(NCCc2c[nH]c3ccccc23)cc(Nc2ccncc2)c1", "class assignment": "inactive"}

----------
The entries below are paired with their reported nuclei count, normalised.
assay: nuclear p53 accumulation, HPV+ cells – imaging, p53-positive nuclei imaging, 24 h, 48 h (AID 1508601); settings: 24/48 h, measured here: cell number at 48 h, Library stock concentration: 10 mM
Screen size: about 5,700 compounds; about 85 (1%) were called active. The sample as a whole holds a higher share of actives than the screen did.
assay metric: nuclei count, normalised (%)

{"compound": "O=C(Cc1ccc(-c2ccc(OCCN3CCOCC3)cc2)cn1)NCc1ccccc1", "assay metric": "nuclei count, normalised", "measured value": 26.9}
{"compound": "COc1ccc(-c2ccc3ncc4c(c3c2)n(-c2ccc(N3CCNCC3)c(C(F)(F)F)c2)c(=O)n4C)cn1", "assay metric": "nuclei count, normalised", "measured value": 37.2}
{"compound": "COc1cc(OC)cc(-c2ccc3ncc4ccc(=O)n(-c5ccc(N6CCNCC6)c(C(F)(F)F)c5)c4c3c2)c1", "assay metric": "nuclei count, normalised", "measured value": 30.1}
{"compound": "CCCCc1nc2cc(C=CC(=O)NO)ccc2n1CCN(CC)CC", "assay metric": "nuclei count, normalised", "measured value": 28.2}
{"compound": "COc1cc(OC)c2c(=O)[nH]c(-c3cc(C)c(OCCO)c(C)c3)nc2c1", "assay metric": "nuclei count, normalised", "measured value": 108}
{"compound": "CC(C)CC(C(=O)NC(Cc1ccc(OCc2ccccc2)cc1)C(=O)NC(C)(C)C)N(C)Cc1ccc(C(C)(C)C)cc1 (centres undefined)", "assay metric": "nuclei count, normalised", "measured value": 109}
{"compound": "CCCCCc1ccc(C=CC(=O)Nc2ccccc2C(=O)O)cc1", "assay metric": "nuclei count, normalised", "measured value": 106}
{"compound": "COc1ccc(CC(NC(=O)C(C)NC(=O)CN2CCOCC2)C(=O)NC(Cc2ccccc2)C(=O)[C@@]2(C)CO2)cc1 (some centres undefined)", "assay metric": "nuclei count, normalised", "measured value": 39.6}
{"compound": "N#CSc1cc(SC#N)c(N)nc1N", "assay metric": "nuclei count, normalised", "measured value": 21.8}
{"compound": "CCC(C)C(NC(=O)C(C(C)CC)N(C)C(C)=O)C(=O)NC(C(=O)NC(CC(C)C)C(=O)[C@@]1(C)CO1)C(C)O (some centres undefined)", "assay metric": "nuclei count, normalised", "measured value": 35.1}
{"compound": "CCN1CCN(Cc2ccc(Nc3ncc4c(n3)N(C)c3ccccc3C(=O)N4C)cc2C(F)(F)F)CC1", "assay metric": "nuclei count, normalised", "measured value": 19.9}
{"compound": "COc1ccc(N(C(=O)Nc2c(C)cccc2C)c2cc(Nc3ccc(N4CCN(C)CC4)cc3OC)ncn2)c(OC)c1", "assay metric": "nuclei count, normalised", "measured value": 66.4}
{"compound": "COC(=O)C=CC(=O)N(O)CCCCNCc1ccc(COC(=O)Nc2cccc3ccccc23)cc1", "assay metric": "nuclei count, normalised", "measured value": 92.8}
{"compound": "O=C(O)CCCCCCCCCCCNC(=O)NC12CC3CC(CC(C3)C1)C2", "assay metric": "nuclei count, normalised", "measured value": 101}
{"compound": "O=C(C=Cc1cccc(S(=O)(=O)Nc2ccccc2)c1)NO", "assay metric": "nuclei count, normalised", "measured value": 30.4}
{"compound": "CCN1CCN(Cc2ccc(NC(=O)c3ccc(C)c(Oc4ccnc5[nH]ccc45)c3)cc2C(F)(F)F)CC1", "assay metric": "nuclei count, normalised", "measured value": 112}
{"compound": "CC1CCNC(=O)c2cc3ccc(C(=O)Nc4nc5ccccc5n4CCCN(C)C)cc3n21 (centres undefined)", "assay metric": "nuclei count, normalised", "measured value": 119}
{"compound": "CC(C)C1C(=O)NC(CCCN=C(N)N)C(=O)NCC(=O)NC(CC(=O)O)C(=O)NC(Cc2ccccc2)C(=O)N1C (centres undefined)", "assay metric": "nuclei count, normalised", "measured value": 34.6}
{"compound": "NC(=O)c1ccc(-c2nc(-c3ccc4c(c3)OCCO4)c(-c3ccccn3)[nH]2)cc1", "assay metric": "nuclei count, normalised", "measured value": 99.9}
